# measurement protocol: Solubility of the different polymorphs in phosphate buffer
# Format: physicochemical
# measurement conditions: pH 7.4 phosphate buffer, 25° C., 1 hr
measurement name: solubility, concentration versus time
Please answer using a numeric value trailed by its unit.

Field: example entries. Status: answers known.
COc1ccc(C(=O)NC2(C(=O)O)Cc3ccccc3C2)cc1OCCc1cccc(C)c1 [Form 2]: 0.034 mg/mL
COc1ccc(C(=O)NC2(C(=O)O)Cc3ccccc3C2)cc1OCCc1cccc(C)c1 [Form 4]: 0.079 mg/mL
COc1ccc(C(=O)NC2(C(=O)O)Cc3ccccc3C2)cc1OCCc1cccc(C)c1 [Form 3]: 0.083 mg/mL

Here is the next item to consider.
[in] State the recorded solubility, concentration versus time for this entry: COc1ccc(C(=O)NC2(C(=O)O)Cc3ccccc3C2)cc1OCCc1cccc(C)c1 [Form 1]
[out] 0.042 mg/mL

====

# measurement protocol: Single-dose PK under fasted conditions in healthy adult subjects
# Assay type: in vivo, human
# measurement conditions: human, plasma, oral, 450 mg single dose
# Protocol: The PK of Compound I and food effect were evaluated in an open-label study in healthy volunteers to inform the dose and dosing condition of the tablet formulations used in the clinical studies. Dose proportionality and food effect were evaluated using a 2-way, 2-period crossover design in two cohorts:150 mg and 300 mg single dose under fasting condition in Cohort 1 and 450 mg single dose under fasting and high-fat, high calorie meal condition in Cohort 2. […]
measurement name: half-life
Please answer using a numeric value trailed by its unit.

[in] State the recorded half-life for this entry: `COc1ccc(C(=O)NC2(C(=O)O)Cc3ccccc3C2)cc1OCCc1cccc(C)c1`
[out] 18.3 h
